Recorded IC50 values for a group of compounds are listed next.
target: D816V Kit (Homo sapiens (Human), UniProt P10721, D816V); assay: Kit D816V assay at Km (Caliper electrophoretic mobility shift); type: biochemical; details: D816V Kit 0.5 nM, 15 uM ATP (Km), 1 uM Srctide, 25 C, 90 minutes; read-out: INH-KITD816V ENZ-KM IC50 (nM) (Num)
Sequence (P10721 26-976 D816V): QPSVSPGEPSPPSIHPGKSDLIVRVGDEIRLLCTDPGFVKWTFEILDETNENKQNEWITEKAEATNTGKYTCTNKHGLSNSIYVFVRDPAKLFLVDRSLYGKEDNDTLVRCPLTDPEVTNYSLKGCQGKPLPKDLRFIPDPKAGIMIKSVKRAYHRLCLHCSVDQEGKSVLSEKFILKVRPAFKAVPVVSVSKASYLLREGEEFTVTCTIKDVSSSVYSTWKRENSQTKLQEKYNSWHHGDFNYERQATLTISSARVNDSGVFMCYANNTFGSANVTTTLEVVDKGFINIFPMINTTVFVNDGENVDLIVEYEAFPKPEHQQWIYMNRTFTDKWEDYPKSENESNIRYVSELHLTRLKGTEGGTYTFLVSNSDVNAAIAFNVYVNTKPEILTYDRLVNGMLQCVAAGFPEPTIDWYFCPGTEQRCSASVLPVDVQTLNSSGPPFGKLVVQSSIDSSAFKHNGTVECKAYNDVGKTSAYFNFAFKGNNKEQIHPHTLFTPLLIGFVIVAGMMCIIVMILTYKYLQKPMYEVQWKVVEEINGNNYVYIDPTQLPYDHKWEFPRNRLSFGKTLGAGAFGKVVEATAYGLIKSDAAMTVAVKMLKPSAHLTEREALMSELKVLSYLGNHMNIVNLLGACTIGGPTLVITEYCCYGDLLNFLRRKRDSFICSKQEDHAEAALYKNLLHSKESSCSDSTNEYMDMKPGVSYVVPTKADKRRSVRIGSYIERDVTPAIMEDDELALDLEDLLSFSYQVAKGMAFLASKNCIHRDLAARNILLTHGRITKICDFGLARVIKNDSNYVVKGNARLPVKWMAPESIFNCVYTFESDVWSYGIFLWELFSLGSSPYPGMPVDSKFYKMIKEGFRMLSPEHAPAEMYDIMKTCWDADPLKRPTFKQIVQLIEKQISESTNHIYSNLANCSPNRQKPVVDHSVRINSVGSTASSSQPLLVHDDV

Some compounds with recorded IC50:
[
  {
    "compound": "COc1cc2ncnc(N3CCN(c4ncc(CCc5ccccc5)cn4)CC3)c2cc1OC",
    "valueType": "IC50",
    "valueMeasured": "1.01 to 10 nM"
  },
  {
    "compound": "COc1cc2ncnc(N3CCN(c4ncc(Cc5ccccc5)cn4)CC3)c2cc1OC[C@H]1CCCN(C)C1",
    "valueType": "IC50",
    "valueMeasured": "1.01 to 10 nM"
  }
]

Inquiry: Query the reported IC50 for D816V Kit (Homo sapiens (Human), UniProt P10721, D816V); item: COc1cc2ncnc(N3CCN(c4ncc(Cc5ccccc5)c(=O)[nH]4)CC3)c2cc1OC[C@H]1CNCCO1
Reply text: < 1 nM

Inquiry: Now try COc1cc2ncnc(N3CCN(c4ncc(Cc5ccccc5)cn4)C(C)C3)c2cc1OC (centres unmarked) [Compound 23] .
Reply text: 1.01 to 10 nM

Inquiry: Now try COc1cc2ncnc(N3CCN(c4ncc(Cc5ccccc5)cn4)CC3)c2cc1OCCCN1CCN(C)CC1 .
Reply text: < 1 nM

Inquiry: Now try COc1cc2ncnc(N3CCN(c4ncc(Br)c(OC)n4)CC3)c2cc1OC .
Reply text: > 100 nM

Inquiry: Now try COc1cc2ncnc(N3CCN(c4ncc(S(=O)(=O)c5ccccc5)cn4)CC3)c2cc1OC .
Reply text: 10 to 100 nM

Inquiry: Now try COc1cc2ncnc(N3CCN(c4ncc(Cc5ccccc5)cn4)CC3)c2cc1OCC1CCCNC1 (centres unmarked) .
Reply text: < 1 nM

---

Recorded IC50 values for a group of compounds are listed next.
biological target: D816V Kit (Homo sapiens (Human), UniProt P10721, D816V); experiment: Kit D816V assay at Km (Caliper electrophoretic mobility shift); assay type: biochemical; details: D816V Kit 0.5 nM, 15 uM ATP (Km), 1 uM Srctide, 25 C, 90 minutes; read-out: INH-KITD816V ENZ-KM IC50 (nM) (Num)

Some compounds with recorded IC50:
[
  {
    "compound": "COc1cc2ncnc(N3CCN(c4ncc(Cc5ccccc5)cn4)CC3)c2cc1OC1CCN(CCO)C1 (centres unmarked) [Compound 118]",
    "experimentalTarget": "D816V Kit (Homo sapiens (Human), UniProt P10721, D816V)",
    "valueType": "IC50",
    "valueMeasured": "1.01 to 10 nM"
  },
  {
    "compound": "COc1cc2ncnc(N3CCN(c4ncc(NC(C)c5ccccc5)cn4)CC3)c2cc1OC (centres unmarked) [Compound 56]",
    "experimentalTarget": "D816V Kit (Homo sapiens (Human), UniProt P10721, D816V)",
    "valueType": "IC50",
    "valueMeasured": "10 to 100 nM"
  },
  {
    "compound": "COc1cc2ncnc(N3CCN(c4ncc(Cc5ccccc5)cn4)CC3)c2cc1OC[C@@H]1CCCN(C)C1 [Compound 113]",
    "experimentalTarget": "D816V Kit (Homo sapiens (Human), UniProt P10721, D816V)",
    "valueType": "IC50",
    "valueMeasured": "< 1 nM"
  },
  {
    "compound": "COc1cc2ncnc(N3CCN(c4ncc(Cc5ccccc5)cn4)CC3)c2cc1OCCN1CCN(C)CC1 [Compound 126]",
    "experimentalTarget": "D816V Kit (Homo sapiens (Human), UniProt P10721, D816V)",
    "valueType": "IC50",
    "valueMeasured": "1.01 to 10 nM"
  },
  {
    "compound": "COc1cc2ncnc(N3CCN(c4ncc(Cc5ccccc5)cn4)CC3)c2cc1OCC1CCN(C)CC1 [Compound 112]",
    "experimentalTarget": "D816V Kit (Homo sapiens (Human), UniProt P10721, D816V)",
    "valueType": "IC50",
    "valueMeasured": "< 1 nM"
  },
  {
    "compound": "COc1cc2ncnc(N3CCN(c4ncc(Cc5cccc(F)c5)cn4)CC3)c2cc1OC [Compound 39]",
    "experimentalTarget": "D816V Kit (Homo sapiens (Human), UniProt P10721, D816V)",
    "valueType": "IC50",
    "valueMeasured": "1.01 to 10 nM"
  },
  {
    "compound": "COc1cc2ncnc(N3CCN(c4ncc(-c5ccccc5)cn4)CC3)c2cc1OC [Compound 9]",
    "experimentalTarget": "D816V Kit (Homo sapiens (Human), UniProt P10721, D816V)",
    "valueType": "IC50",
    "valueMeasured": "> 100 nM"
  },
  {
    "compound": "COc1cc2ncnc(N3CCN(c4ncc(Cc5ccccc5)cn4)CC3)c2cc1OCC1CN(C)CCO1 (centres unmarked) [Compound 117]",
    "experimentalTarget": "D816V Kit (Homo sapiens (Human), UniProt P10721, D816V)",
    "valueType": "IC50",
    "valueMeasured": "< 1 nM"
  },
  {
    "compound": "COc1cc2ncnc(N3CCN(c4ncc(Cc5ccc(C#N)cc5)cn4)CC3)c2cc1OC [Compound 45]",
    "experimentalTarget": "D816V Kit (Homo sapiens (Human), UniProt P10721, D816V)",
    "valueType": "IC50",
    "valueMeasured": "1.01 to 10 nM"
  },
  {
    "compound": "COc1cc2ncnc(N3CCN(c4ncc(Cc5ccccc5)cn4)CC3)c2cc1OCC1CCN(CCO)CC1 [Compound 139]",
    "experimentalTarget": "D816V Kit (Homo sapiens (Human), UniProt P10721, D816V)",
    "valueType": "IC50",
    "valueMeasured": "1.01 to 10 nM"
  }
]

Inquiry: Report IC50 for COc1cc2ncnc(N3CCN(c4ncc(Cc5ccccc5)c(N)n4)CC3)c2cc1OC [Compound 29] please.
Reply text: < 1 nM

Inquiry: Now try COc1cc2ncnc(N3CCN(c4ncc(NCc5ccc(C)cc5)cn4)CC3)c2cc1OC [Compound 53] .
Reply text: 10 to 100 nM
